ASSAYED TARGET: hENPP2 (UniProtKB/SwissProt Q13822) (Homo sapiens (Human), UniProt Q13822)
ASSAY PROTOCOL: hENPP2 biochemical assay, LPC as substrate
STUDY CONDITIONS: LPC (palmitoyl 16:0) as substrate
PARAMETER: IC50

compound=CCc1nc2ccc(C3CCN(CC(=O)NCCCO)CC3)cn2c1N(C)c1nc(-c2ccc(F)cc2)cs1 parameter=IC50 result_value="> 1 µM"
compound=CN(C)C(=O)CN1CCC(c2ccc3nc(CCC(N)=O)c(N(C)c4nc(-c5ccc(F)cc5)cs4)n3c2)CC1 parameter=IC50 result_value="> 1 µM"
compound=CCc1nc2ccc(C3CCN(S(C)(=O)=O)CC3)cn2c1N(C)c1nc(-c2ccc(C(C)(C)C)cc2)cs1 parameter=IC50 result_value="> 1 µM"
compound=CCc1nc2ccc(N3CCN(CC(=O)N(C)C)CC3)cn2c1N(C)c1nc(-c2ccc(F)cc2)cs1 parameter=IC50 result_value="0.1 to 0.5 µM"
compound=CCc1nc2ccc(N3CCN(CC(=O)N4CCOCC4)CC3)cn2c1N(C)c1nc(-c2ccc(F)cc2)cs1 parameter=IC50 result_value="0.1 to 0.5 µM"
compound=CCc1nc2ccc(C3CCN(C(C)C)CC3)cn2c1N(C)c1nc(-c2ccc(F)cc2)cs1 parameter=IC50 result_value="> 1 µM"
compound="CCc1nc2ccc(C3CCN(CC4COC(=O)N4)CC3)cn2c1N(C)c1nc(-c2ccc(F)cc2)cs1 (stereo not shown)" parameter=IC50 result_value="> 1 µM"

====

ASSAYED TARGET: hENPP2 (UniProtKB/SwissProt Q13822) (Homo sapiens (Human), UniProt Q13822)
ASSAY PROTOCOL: fluorescent hENPP2 biochemical assay, FS-3 as substrate
STUDY CONDITIONS: read-out: FS3-IC50
pIC50: −log10 of the molar value.
# pIC50 per entry
PARAMETER: pIC50

chemical_structure=CCc1nc2ccc(N3CCNC3=O)cn2c1N(C)c1nc(-c2ccc(Cl)cc2)cs1 result_value="7.00 to 11.00"
chemical_structure=CCc1nc2ccc(C3CCN(C(=O)CN4CC(F)C4)CC3)cn2c1N(C)c1nc(-c2ccc(F)cc2)cs1 result_value="7.00 to 11.00"
chemical_structure=CCc1nc2ccc(N3CCN(C(=O)[C@H](C)O)CC3)cn2c1N(C)c1nc(-c2ccc(F)cc2)cs1 result_value="7.00 to 11.00"

====

ASSAYED TARGET: hENPP2 (UniProtKB/SwissProt Q13822) (Homo sapiens (Human), UniProt Q13822)
ASSAY PROTOCOL: hENPP2 biochemical assay, LPC as substrate
STUDY CONDITIONS: LPC (palmitoyl 16:0) as substrate
Form field: IC50 (one value per entry).
PARAMETER: IC50

compound="CCc1nc2ccc(N3CCN(C(=O)C(N)=O)CC3)cn2c1N(C)c1nc(-c2ccc(F)cc2)cs1 [Compound 204]" parameter=IC50 result_value="> 1000 nM"
compound="CCc1nc2ccc(C3CCN(C(=O)CN4CC(O)C4)CC3)cn2c1N(C)c1nc(-c2ccc(F)cc2)cs1 [Compound 128]" parameter=IC50 result_value="100 to 500 nM"
compound="CCOC(=O)C(=O)N1CCN(c2ccc3nc(CC)c(N(C)c4nc(-c5ccc(F)cc5)cs4)n3c2)CC1 [Compound 228]" parameter=IC50 result_value="> 1000 nM"
compound="CCc1nc2ccc(N3CCS(=O)(=O)CC3)cn2c1N(C)c1nc(-c2ccc(F)cc2)cs1 [Compound 182]" parameter=IC50 result_value="> 1000 nM"

====

Some compounds, each annotated with its measured IC50.
ASSAYED TARGET: hENPP2 (UniProtKB/SwissProt Q13822) (Homo sapiens (Human), UniProt Q13822)
ASSAY PROTOCOL: hENPP2 biochemical assay, LPC as substrate
STUDY CONDITIONS: LPC (palmitoyl 16:0) as substrate
Protocol: The principle of the assay consists in quantifying the released choline with an enzymatic method using choline oxidase and peroxidase. Choline oxydation by choline oxydase releases betaine and peroxide. The latter is quantified in presence of HRP that converts the peroxide detection agent TOOS and 4-aminoantipyrine into quinoneimine dye. The appearance of quinoneimine dye is measured spectrophotometrically at 555 nm and is proportional to the amount of choline released by ENPP2. […]
PARAMETER: IC50

compound=CCC(=O)N1CCC(c2ccc3nc(CC)c(N(C)c4nc(-c5ccc(F)cc5)c(CO)s4)n3c2)CC1 result_value="100 to 500 nM"
compound=CCc1nc2ccc(C3=CCN(S(C)(=O)=O)CC3)cn2c1N(C)c1nc(-c2ccc(C(F)(F)F)cc2)cs1 result_value="> 1000 nM"
compound=CCc1nc2ccc(C3CCN(CC(=O)N(C)C)CC3)cn2c1N(C)c1nc(-c2ccc(F)cc2C#N)cs1 result_value="0.01 to 100 nM"
compound=CCc1nc2ccc(C3CCN(CC(=O)N(C)C)CC3)cn2c1N(C)c1nc(-c2ccc(F)cc2)ns1 result_value="> 1000 nM"
compound="CCc1nc2ccc(C3CCN(CC4CN(C)C(=O)O4)CC3)cn2c1N(C)c1nc(-c2ccc(F)cc2)cs1 (stereo not drawn)" result_value="> 1000 nM"
compound=CCc1nc2ccc(N3CCCCS3(=O)=O)cn2c1N(C)c1nc(-c2ccc(Cl)cc2)cs1 result_value="> 1000 nM"
compound=CCc1nc2ccc(N3CCN(S(=O)(=O)CC(=O)OC)CC3)cn2c1N(C)c1nc(-c2ccc(F)cc2)cs1 result_value="> 1000 nM"
compound="CCc1nc2ccc(N3CCN(CC(=O)N4CCC(NC(C)=O)C4)CC3)cn2c1N(C)c1nc(-c2ccc(F)cc2)cs1 (stereo not drawn)" result_value="100 to 500 nM"
compound=CCOC(=O)CN1CCN(c2ccc3nc(CC)c(N(C)c4nc(-c5ccc(F)cc5)cs4)n3c2)C(=O)C1 result_value="> 1000 nM"
compound=CCc1nc2ccc(N3CCN(CC(=O)N4CC(CO)C4)CC3)cn2c1N(C)c1nc(-c2ccc(F)cc2)cs1 result_value="100 to 500 nM"
compound=CCc1nc2ccc(N3CCN(CC(=O)N4CC(F)(F)C4)CC3)cn2c1N(C)c1nc(-c2ccc(F)cc2)cs1 result_value="100 to 500 nM"
compound=CCc1nc2ccc(N3CCN(C(=O)C(C)=O)CC3)cn2c1N(C)c1nc(-c2ccc(F)cc2)cs1 result_value="> 1000 nM"
compound=CCc1nc2ccc(N3CCN(CC(=O)N4CC(F)C4)CC3)cn2c1N(C)c1nc(-c2ccc(F)cc2C#N)cs1 result_value="0.01 to 100 nM"
compound=CCc1nc2ccc(C3CCN(C(=O)CN4CCCC4)CC3)cn2c1N(C)c1nc(-c2ccc(F)cc2)cs1 result_value="100 to 500 nM"
compound=CCc1nc2ccc(N3CCN(C(=O)OC(C)(C)C)CC3)cn2c1N(C)c1nc(-c2ccc(Cl)cc2)ns1 result_value="> 1000 nM"

====

ASSAYED TARGET: hENPP2 (UniProtKB/SwissProt Q13822) (Homo sapiens (Human), UniProt Q13822)
ASSAY PROTOCOL: hENPP2 biochemical assay, LPC as substrate
STUDY CONDITIONS: LPC (palmitoyl 16:0) as substrate
pIC50: −log10 of the molar value.
PARAMETER: pIC50

chemical_structure=CCc1nc2ccc(N3CCN(CC(=O)NC)CC3)cn2c1N(C)c1nc(-c2ccc(F)cc2)c(C#N)s1 result_value="7.00 to 11.00"
chemical_structure=CCC(=O)N1CCC(c2ccc3nc(CC)c(N(C)c4nc(-c5ccc(F)cc5)cs4)n3c2)CC1 result_value="6.30 to 7.00"
chemical_structure=CCc1nc2ccc(C3CCN(CC(=O)N4CC(O)C4)CC3)cn2c1N(C)c1nc(-c2ccc(F)cc2C#N)c(C)s1 result_value="6.30 to 7.00"
chemical_structure=CCc1nc2ccc(N3CCN(CC(=O)N(C)C)CC3)cn2c1N(C)c1nc(-c2ccc(F)cc2C#N)cs1 result_value="7.00 to 11.00"

====

ASSAYED TARGET: hENPP2 (UniProtKB/SwissProt Q13822) (Homo sapiens (Human), UniProt Q13822)
ASSAY PROTOCOL: hENPP2 biochemical assay, LPC as substrate
STUDY CONDITIONS: LPC (palmitoyl 16:0) as substrate
PARAMETER: IC50

compound=CCc1nc2c(F)cc(N3CCN(CC(=O)N4CC(O)C4)CC3)cn2c1N(C)c1nc(-c2ccc(F)cc2)c(C#N)s1 result_value="0.01 to 100 nM"
compound=CCc1nc2ccc(C3CCN(CC(=O)N(C)CC#N)CC3)cn2c1N(C)c1nc(-c2ccc(F)cc2)cs1 result_value="500 to 1000 nM"
compound=CCc1nc2ccc(C3CCN(C[C@@H]4CNC(=O)O4)CC3)cn2c1N(C)c1nc(-c2ccc(F)cc2)cs1 result_value="> 1000 nM"
compound=CCc1nc2ccc(C3CCN(S(=O)(=O)CCCN4CCOCC4)CC3)cn2c1N(C)c1nc(-c2ccc(F)cc2)cs1 result_value="100 to 500 nM"
compound=CN(c1nc(-c2ccc(Cl)cc2)cs1)c1c(CC(F)(F)F)nc2ccc(C3=CCN(S(C)(=O)=O)CC3)cn12 result_value="> 1000 nM"
compound=CCc1nc2ccc(C3CCN(S(=O)(=O)CCN4CCOCC4)CC3)cn2c1N(C)c1nc(-c2ccc(F)cc2)cs1 result_value="500 to 1000 nM"
compound=CCc1nc2ccc(C3=CCN(S(=O)(=O)C(F)(F)F)CC3)cn2c1N(C)c1nc(-c2ccc(Cl)cc2)cs1 result_value="> 1000 nM"
compound=CCc1nc2ccc(C3=CCN(S(=O)(=O)CCCOC(C)=O)CC3)cn2c1N(C)c1nc(-c2ccc(F)cc2)cs1 result_value="> 1000 nM"
compound=CCc1nc2ccc(N3CCN(C(=O)C4CC4)CC3)cn2c1N(C)c1nc(-c2ccc(F)cc2)cs1 result_value="> 1000 nM"
compound=CCc1nc2ccc(C3CCN(S(C)(=O)=O)CC3)cn2c1N(C)c1nc(-c2ccc(F)cc2O)cs1 result_value="> 1000 nM"
compound=CCc1nc2ccc(N3CCN(C(=O)CO)CC3)cn2c1N(C)c1nc(-c2ccc(F)cc2)cs1 result_value="500 to 1000 nM"
compound="CCc1nc2ccc(C3CCN(CC4CNC(=O)O4)CC3)cn2c1N(C)c1nc(-c2ccc(F)cc2)cs1 (centres unmarked)" result_value="500 to 1000 nM"
compound=CCc1nc2ccc(C3CCN(CC(=O)N4CC(O)C4)CC3)cn2c1N(C)c1nc(-c2ccc(F)cc2)c(CO)s1 result_value="500 to 1000 nM"
compound=CCc1nc2ccc(N3CCN(CC(=O)NC)CC3)cn2c1N(C)c1nc(-c2ccc(F)cc2C#N)cs1 result_value="0.01 to 100 nM"
